assayTarget: Mitogen-activated protein kinase 1 (Homo sapiens)
conditionsUsed: Compound concentration 20.0 uM
Description: Thermal Shift Assay. Domain: start/stop: M1-S360
Non-standard residues stand in square brackets, D forms with d. Residues, ends and D or L forms follow the SMILES beside them. *: point of attachment. Nle = CCCC[C@H](N)C(=O)O; Boc = CC(C)(C)OC(=O)*
measuredEndpoint: ΔTm (°C)
I only need the number, in °C, no unit after it.

Exercise: Which ΔTm value belongs to `CC/C(=C(/c1ccc(/C=C/C(=O)O)cc1)c1ccc2[nH]ncc2c1)c1ccc(F)cc1Cl` ?
Key: 0

Exercise: Record request: ΔTm value, item `CCCOC(=O)N1CCN(C(=O)c2ccc3c(Cl)cc(-c4ccc(C5(N)CC5)cc4)nc3c2)C[C@H]1C`
Key: -7.2

Exercise: Need ΔTm of `Cc1ccc2c(c1)nc(/C=C/c1cccc3cccnc13)n2-c1cccc(OCCCN2CCN(C)CC2)c1` , thanks.
Key: 0.14

Exercise: Requested field: ΔTm. Item: `Cc1ccsc1C(=CCCN1CCC[C@@H](C(=O)O)C1)c1sccc1C`
Key: 0.16

Exercise: Endpoint output: ΔTm of CCCC[C@@H](C=O)NC(=O)[C@H](CC(C)C)NC(=O)[C@H](CC(C)C)NC(C)=O (Ac-Leu-Leu-[Nle]-aldehyde) . Value?
Key: 0.06

Exercise: Which ΔTm is listed for `O=C(O)CCNc1cc(N2CCc3ccccc3CC2)nc(-c2ccccn2)n1` ?
Key: -0.2

Exercise: Suppose we examine the compound `CCn1nc(C2CC2)cc1Nc1nc(C(=O)NC)nc2[nH]c3cc(-c4c(C)noc4C)c(OC)cc3c12` ; what ΔTm value has been reported?
Key: 0.23

Exercise: Looking for the measured ΔTm of CC(C)[C@H](NC(=O)[C@H](CCC(=O)O)NC(=O)[C@H](C)NC(=O)OC(C)(C)C)C(=O)N[C@H](C=O)CC(=O)O (Boc-AEVD-aldehyde) , can you help?
Key: -0.49

Exercise: Returns the measured ΔTm for the input compound. Input: `CCN(CC)C(=O)/C(C#N)=C/c1cc(O)c(O)c([N+](=O)[O-])c1`
Key: 0.32

Exercise: Name the reported ΔTm value associated with the compound `COCc1nc(C(F)(F)F)[nH]c1-c1cc(C(=O)N2CC(c3ccc(C#N)cc3)C2)c(C)cc1C`
Key: 0.07

Exercise: Recorded ΔTm of CC[C@H](C)[C@H](NC(=O)[C@H](CCC(=O)O)NC(=O)[C@@H](NC(C)=O)C(C)C)C(=O)N[C@H](C=O)CC(=O)O (Ac-VEID-aldehyde) , please.
Key: -0.47

Exercise: Please report the recorded ΔTm for `O=C(CCCCCCNC(=O)c1cnc(N(c2ccccc2)c2ccccc2)nc1)NO` .
Key: -0.28

Exercise: Look at this compound and give its reported ΔTm. `C/C=C1\NC(=O)[C@H]2CSSCC/C=C/[C@H](CC(=O)N[C@H](C(C)C)C(=O)N2)OC(=O)[C@H](C(C)C)NC1=O`
Key: -6.13

Exercise: Look at this compound and give its reported ΔTm. `O=C(N(CCc1ccccc1)C1CCCCC1)n1ncc(-c2ccc(OC(F)(F)F)cc2)n1`
Key: 0.11

Exercise: Which ΔTm value is on record for `O=C(NCCc1cc(C(=O)NO)no1)c1ccc(Cl)c(Cl)c1` ?
Key: 0.3

Exercise: If you can, please state the reported ΔTm value of `CCCc1nc(C)c2c(C)nc3ccc(OC)nc3n12` .
Key: 0.58

Exercise: Which ΔTm value is on record for Cc1cc(Cl)cc(-c2c3sc(CN4C(=O)C5C(C4=O)C5(C)C)cc3nn2C)c1OC1CCNCC1 (stereo not given) ?
Key: -0.05

Exercise: Entry `N#Cc1cc2cc(CN3CCC(Nc4ncnc5sc(CC(F)(F)F)cc45)CC3)ccc2[nH]1` : reported ΔTm = ?
Key: 0.61

Exercise: Reported ΔTm for `O=C1/C(=N/Nc2ccc(S(=O)(=O)O)cc2)C(c2ccc([N+](=O)[O-])cc2)=NN1c1ccccc1` : what is it?
Key: 0

Exercise: Return reported ΔTm; argument: `NC(=S)c1cccc(-c2cn(C3CCN(S(=O)(=O)C(F)(F)F)CC3)c3cc(CNC(=O)C4CNC4)ccc23)c1`
Key: 0.28

Exercise: What does the data say about its ΔTm? Entry: `O=C(CCl)Nc1ccc(S(=O)(=O)c2ccc(NC(=O)CCl)cc2)cc1`
Key: -1.61

Exercise: Which ΔTm value is on record for `CCS(=O)(=O)Cc1cnc(Oc2ccc(F)cc2F)c(-c2cc(C)c3c(=O)[nH]ccn23)c1` ?
Key: 0.23

Exercise: Could you tell me which ΔTm is on file for CN(C)CC(c1ccc(O)cc1)C1(O)CCCCC1 (stereo not given) ?
Key: 0.1

Exercise: Item `O=C(Nc1ccc2[nH]nc(-c3ccncc3)c2c1)[C@@H]1CCN(CC(=O)N2CCN(c3ccc(-c4ncccn4)cc3)CC2)C1` has what recorded ΔTm?
Key: 13.1

Exercise: Field request: ΔTm | item: `O=C(NC1CCC1)c1ccc2nc(-c3cccc(NS(=O)(=O)NCCN4CCCCC4)c3)cn2c1`
Key: 0.15
